- Test system: SF-295 CNS
- test.protocol: NCI-60 one-dose screen, 48 h (100 = growth as untreated, 0 = no growth, -100 = all killed)
- reported.conditions: 10 µM unless noted
About 83,000 compounds went through this panel and 20% of them were active in at least one assay; those are over-represented in the sample as a whole. Calls of active or inactive are those of the source. The calls were made as follows: active = growth percent below 10; inactive = the rest.
metric.name: growth

Solved entries:
Query: Find the recorded growth belonging to O=S(=O)(NCCCNc1nccc(-c2c(-c3cccc(F)c3)nc3occn23)n1)c1ccc(F)cc1 and report it.
Response: 89.5% (inactive)

Query: I'd like to know its growth. The compound in question is CC(=O)OC[C@]12CC[C@@H]([C@@H](C)c3nnc(-c4ccncc4)o3)[C@@H]1[C@H]1CC[C@@H]3[C@@]4(C)CC[C@H](OC(C)=O)C(C)(C)[C@@H]4CC[C@@]3(C)[C@]1(C)CC2
Response: 74.9% (inactive)

Dear reader, for each entry below, please note its growth.
1. CCN1CCN(CC(=O)Nc2ccc(-c3cn4c(n3)sc3cc(Oc5ccnc(C(=O)NC)c5)ccc34)cc2)CC1
2. Cc1ccc(S(=O)(=O)OCCCOS(=O)(=O)c2ccc(C)cc2)cc1
3. CCNC(=O)Oc1ccc(/C(=C(/C)Cc2ccc(OC)cc2)c2ccc(OCCN3CCCCC3)cc2)cc1
4. CCOC(=O)c1c(C)nc2c(c1N)CC(=O)N2Cc1ccc(OC)cc1
5. C=C1C(=O)O[C@H]2[C@H]1CC/C(COC(=O)NCc1ccc(Cn3c(=O)sn(-c4ccc(C#N)cc4)c3=O)cc1)=C\CC[C@@]1(C)O[C@@H]21

Response:
["65.4% (inactive)", "107% (inactive)", "82.6% (inactive)", "28.5% (inactive)", "102% (inactive)"]

====

- Test system: UACC-257 melanoma
- test.protocol: NCI-60 one-dose screen, 48 h (100 = growth as untreated, 0 = no growth, -100 = all killed)
- reported.conditions: 10 µM unless noted
- Method: Cells are grown in 96 well plates and exposed to the test compound for 48 hours. Compounds are tested at a single concentration, which is 10^-5 M for most compounds. The reported endpoint is percent growth (GI% or GIPRCNT), where numbers from 0 - 100% represent growth inhibition, and numbers from -100% - 0 represent cell death. For example, a value of 40 represents 60% growth inhibition. A value of 0 means no net growth occurred over the course of the experiment. […]
Compounds without any hit were thinned out: in the full panel of roughly 83,000, 20% have a hit.
Kindly return condition met if reported growth is no lower than 60%; return condition not met if it is lower.

Query: Hello, I need to know if Cc1nc2cc(O)c(O)cc2cc1Oc1ccc(NC(=O)Nc2ccc(Cl)c(Cl)c2)cc1 has measured growth not below 60%. Thanks!
Response: condition met

Query: Determine whether this molecule has growth no lower than 60%: C=C1C(=O)O[C@H]2[C@H]1CC/C(COC(=O)CSCSCC(=O)OC/C1=C/CC[C@@]3(C)O[C@H]3[C@H]3OC(=O)C(=C)[C@@H]3CC1)=C\CC[C@@]1(C)O[C@@H]21
Response: condition not met

Query: Could you please find out whether N#Cc1ccc(O)c(C2=NCC(Cc3ccccc3)O2)c1 (configuration not stated) has growth that meets 60% or exceeds it?
Response: condition met

Query: Is reported growth greater than or equal to 60% here: O=C(N/N=C/c1cc(Cl)ccc1O)c1ccccc1Nc1ccnc(C(F)(F)F)c1
Response: condition not met

Query: Please indicate if the recorded growth for Cc1nc2sc(C(=O)Nc3cccc(Br)c3C)c(N)c2cc1C(O)c1ccccc1 (configuration not stated) meets or exceeds 60%.
Response: condition not met

We next turn to a different molecule, shown below.
Query: Is growth at least 60%? Consider CC1(C)CC[C@]23CC[C@]4(C)[C@H](CC[C@@H]5[C@@]6(C)C/C(=C/c7ccncc7)C(=O)C(C)(C)[C@@H]6CC[C@]54C)[C@H]2[C@H]1OC3
Response: condition met
